Tested on: Rattus norvegicus
Test: Neuroleptic activity in ip dosed rat assessed as drug required for blocking discriminated jump-out avoidance behavior in after 1 hr
Format: functional
Provide the recorded ED50 for the entries that follow.
Numbers only, in mg/kg.

molecule | measurement-unit | ED50
CCOC(=O)C1(c2ccccc2)CCN(C)CC1 [MEPERIDINE] | mg/kg | 10
COc1ccc(Cl)c2c1CCC(CN1CCCCC1)C2=O.Cl (configuration not stated) | mg/kg | 32
COc1ccc(Cl)c2c1CCC(CN1CCOCC1)C2=O.O=C(O)/C=C\C(=O)O (configuration not stated) | mg/kg | 0.32
CN(C)CCCN1c2ccccc2Sc2ccc(Cl)cc21 [CHLORPROMAZINE] | mg/kg | 3.2
CCc1c(C)[nH]c2c1C(=O)C(CN1CCOCC1)CC2 (configuration not stated) [MOLINDONE] | mg/kg | 3.2

Give the measured ED50 of CN1CCN(CC/C=C2/c3ccccc3Sc3ccc(S(=O)(=O)N(C)C)cc32)CC1 [THIOTHIXENE] .
3.2

###

Tested on: Mus musculus
Test: Analgesic activity in mouse assessed as tail-flick latency period at 100 mg/kg, ip after 2 hrs by tail flick test
Format: functional
Settings: route intraperitoneal
Provide the recorded Activity for the entries that follow.
Answers are plain numbers, in %.

Reference set (6 entries):
compound | Activity (%)
COc1ccc(Cl)c2c1CC(CN(C)C)C2=O.Cl (centres undefined) | 30
CCOC(=O)C1(c2ccccc2)CCN(C)CC1 [MEPERIDINE] | 70
CCOC1(c2ccccc2)CCN(CC2CCc3c(OC)ccc(Cl)c3C2=O)CC1.Cl (centres undefined) | 0
CCOC(=O)N1CCN(CC2CCc3c(OC)ccc(Cl)c3C2=O)CC1.O=C(O)/C=C\C(=O)O (centres undefined) | 0
COc1ccc(F)c2c1CCC(CN(C)C)C2=O.Cl (centres undefined) | 0
CCOc1ccc(Cl)c2c1CCC(CN1CCCC1)C2=O.Cl (centres undefined) | 60

Okay, here is my list. What is Activity for each of these?
1. COc1ccc(F)c2c1CCC(CN1CCOCC1)C2=O.Cl (centres undefined)
2. COc1ccc(Cl)c2c1CCC(C(c1ccccc1)N1CCOCC1)C2=O.Cl (centres undefined)
3. COc1ccc(Cl)c2c1CCC(C(c1ccccc1)N1CCCCC1)C2=O.Cl (centres undefined)
4. CCN(CC)CC1CCc2c(OC)ccc(Cl)c2C1=O.O=C(O)/C=C\C(=O)O (centres undefined)
5. CCOc1ccc(Cl)c2c1CCC(CN1CCCCC1)C2=O.Cl (centres undefined)
6. COc1ccc(Cl)c2c1CCC(CN1CCC(c3ccccc3)CC1)C2=O.Cl (centres undefined)
7. Cl.O=C1c2ccccc2CCC1CN1CCCCC1 (centres undefined)
8. CCOc1ccc(Cl)c2c1CCC(CN(C)C)C2=O.Cl (centres undefined)

1. 10
2. 0
3. 0
4. 0
5. 33
6. 10
7. 0
8. 0

Okay, here is my list. What is Activity for each of these?
1. COc1cccc2c1CCC(CN(C)C)C2=O.Cl (centres undefined)
2. Cl.O=C1c2ccccc2CCC1CN1CCOCC1 (centres undefined)
3. COc1ccc(Cl)c2c1CCC(C(C)N1CCCCC1)C2=O.Cl (centres undefined)
4. COc1ccc(Cl)c2c1CCC(CN(C)C)C2=O.Cl (centres undefined)

0
20
0
10

Okay, here is my list. What is Activity for each of these?
1. COc1ccc(F)c2c1CCC(CN1CCCC1)C2=O.Cl (centres undefined)
2. COc1ccc(Cl)c2c1CCC(CN1CCCCC1)C2=O.Cl (centres undefined)
3. COc1ccc(C)c2c1CCC(CN1CCCC1)C2=O.Cl (centres undefined)
4. COc1ccc(OC)c2c1CCC(CN1CCOCC1)C2=O.Cl (centres undefined)

1: 0; 2: 0; 3: 50; 4: 0

Okay, here is my list. What is Activity for each of these?
1. COc1ccc(Cl)c2c1CCC(CN1CCC(O)(c3ccccc3)CC1)C2=O.Cl (centres undefined)
2. COc1ccc(C)c2c1CCC(CN1CCOCC1)C2=O.Cl (centres undefined)

1. 0
2. 0

###

Tested on: Mus musculus
Experiment: Analgesic activity in mouse at 32 mg/kg, ip after 2 hrs by hot plate assay
Type: functional
Details: route intraperitoneal
Provide the recorded Activity for the entries that follow.
Give bare numbers, in %.

Reference set (3 entries):
molecule | measurement-unit | Activity
COc1ccc(C)c2c1CCC(CN1CCCCC1)C2=O.Cl (centres undefined) | % | 40
CCNCC1CCc2c(OC)ccc(Cl)c2C1=O.Cl (centres undefined) | % | 40
COc1ccc(F)c2c1CCC(CN1CCCCC1)C2=O.Cl (centres undefined) | % | 60

Give the measured Activity of C=CCNCC1CCc2c(OC)ccc(Cl)c2C1=O.Cl (centres undefined) .
0

###

System: Mus musculus
Experiment: Analgesic activity in mouse assessed as tail-flick latency period at 100 mg/kg, ip after 2 hrs by tail flick test
Assay type: functional
Settings: route intraperitoneal
Provide the recorded Activity for the entries that follow.
Answers are plain numbers, in %.

compound | system-tested | property-label | measured-value
COc1ccc(Cl)c2c1CC(CN1CCOCC1)C2=O.Cl (configuration not stated) | Mus musculus | Activity | 0
Cl.O=C1c2ccccc2CCC1CN1CCCC1 (configuration not stated) | Mus musculus | Activity | 10
CCOc1ccc(Cl)c2c1CCC(CN1CCOCC1)C2=O.Cl (configuration not stated) | Mus musculus | Activity | 20
CNCC1CCc2c(OC)ccc(Cl)c2C1=O.Cl (configuration not stated) | Mus musculus | Activity | 0
COc1ccc(Cl)c2c1CCC(CN1CCOCC1)C2=O.O=C(O)/C=C\C(=O)O (configuration not stated) | Mus musculus | Activity | 20
COc1ccc(Cl)c2c1CCC(CNC1CCCCC1)C2=O.Cl (configuration not stated) | Mus musculus | Activity | 0
CCC(=O)O[C@](Cc1ccccc1)(c1ccccc1)[C@H](C)CN(C)C | Mus musculus | Activity | 70
COc1ccc(Cl)c2c1CC(CN1CCCCC1)C2=O.Cl (configuration not stated) | Mus musculus | Activity | 0
COc1ccc(Cl)c2c1CCC(CN1CCCC1)C2=O.Cl (configuration not stated) | Mus musculus | Activity | 0
CN(C)CC1CCc2ccccc2C1=O.Cl (configuration not stated) | Mus musculus | Activity | 0

Okay, here is my list. What is Activity for each of these?
1. COc1ccc(Cl)c2c1CC(CN1CCCC1)C2=O.Cl (configuration not stated)
2. COc1cccc2c1CCC(CN1CCCC1)C2=O.Cl (configuration not stated)

[0, 0]

###

Provide the recorded ED50 for the entries that follow.
Tested on: Rattus norvegicus
Experiment: Neuroleptic activity in ip dosed rat assessed as drug required for blocking discriminated jump-out avoidance behavior in after 1 hr
Type: functional

Reference set (4 entries):
molecule | property-label | measured-value
Cl.O=C1c2ccccc2CCC1CN1CCOCC1 (stereo unspecified) | ED50 | > 10 mg/kg
COc1ccc(Cl)c2c1CCC(CN1CCCC1)C2=O.Cl (stereo unspecified) | ED50 | > 178 mg/kg
COc1ccc(Cl)c2c1CCC(CN(C)C)C2=O.Cl (stereo unspecified) | ED50 | > 178 mg/kg
Cl.O=C1c2ccccc2CCC1CN1CCCC1 (stereo unspecified) | ED50 | > 10 mg/kg

Okay, here is my list. What is ED50 for each of these?
1. CN(C)CC1CCc2ccccc2C1=O.Cl (stereo unspecified)
2. Cl.O=C1c2ccccc2CCC1CN1CCCCC1 (stereo unspecified)

> 10 mg/kg
> 32 mg/kg
